assay: yeast display, Sf9 membrane polyspecificity reagent, FACS + sequencing; frameworks hold sequencing errors
Measured endpoint: polyreactivity (PSR sort gate)

Entry sequence	polyreactivity (PSR sort gate)
QVQLVESGGGLVQAGGSLRLSCAASGFTFYNYAMGWYRQAPGKERELVAAISTSGGSTYYADSVKGRFTISRDNAKNTVYLQMNSLKPEDTAVYYCAAQATAYSYAYYYWGQGTQVTVSS	low polyreactivity
QVQLVESGGALVQAGGSLRLSCAASGFTFTINDMGWYRQAPGKERELVATINDSAGSTYYADSVKGRFTISRDNAKNTVYLQMNSQKPDATAVYYCNAYKATRWFEYVYWGQGTQVTVSS	low polyreactivity
QVQLVESGGGLVQAGGSLRLSCAASGITFYGNAMGWYRQAPGKERELVAAINWGGTGTYYADSVKGRFTISRDNAKNTVYLQMNSLKPEDTAVYYCAAEVYTWGQGTQVTVSS	low polyreactivity
QVQLVESGGGLVQAGGSLRLSCAASRLTFQDYAMGWYRQAPGKERELVAGISRSGGRTNYADSVKGRFTISRDNAKNTVYLQMNSLKPEDTAVYYCATPYRRLNTWIYDYWGQGTQVTVSS	high polyreactivity
QVQLVESGGGLVQAGGSLRLSCAASGGIFDFYAMGWYRQAPGKERELVAAIRYGGSSTYYADSVKGRFTISRDNAKNTVYLLLNSLKPEDTAVYYCAAEPFSWDTWVDYDYWGQGTQVTVSS	low polyreactivity

Okay, here is my list. What is polyreactivity (PSR sort gate) for each of these?
1. QVQLVESGGGLVQAGGSLRLSCAASGSTFGPNGMGWYRHAPGKERELVARIDRIGGGTYYADSVKGRFTISRDNANNTVYLQMNSLKPEDTAVYYCAAYGPSPFSQGYAKGDYWGQGTQVTVSS
2. QVQLVESGGGLVQAGGSLRLSSAASGRIFYLNAMGWYRQAPGIERELVAAINTSGDSTYYADSVKGRFTISRDNAKNTVYLQMNSLKPEDTEVYYCAAYVIGPDHFIYDYWGQGTQVTVSS
3. QVQLVESGGGLVQAGGSLRLSCAASGSTIEPYAMGWYRQAPGKEREFVAVITLSGGTTYYADSVKGRFTISRDNAKNTVYLQMHSLKPEDTAVYYCNAQYRKARVDEYYYWGQGTQVTVSS
4. QVQLVESGGGLVQAGGSLRLSCAASGSTFTYYAMGWYRQAPGKERELVAAIDFSGTSTYYADSVKGRFTISRDNAKNTVYLQMNRLKPEDTAVYYCAASQSWYWGGAHDNGEFGYWGQGTQVTVSS
5. QVQLVESVGGLVQAGGSLRLSCAASGRPSNRYAMGWYRQAPGKERELVAAISGRGGSTYYADSVKGRFTISRDNAKNTVYLQMNSLKPEDTAVYYCAKQWYVAKISYDYWGQGTQVTVSS
6. QVQLQESAGGLVQAGGSLRLRCSASGYISCDASMGWYRQAPGKERELAASITQGSSTNYADSVKGRFTIRDNAKNTVYLQMNSLKPEDTAVCYCAVTYPYWGDYTYWGQGTQVTVSS

low polyreactivity
low polyreactivity
high polyreactivity
low polyreactivity
high polyreactivity
low polyreactivity

* * *

experiment: yeast display, Sf9 membrane polyspecificity reagent, FACS + sequencing; frameworks hold sequencing errors
Measured endpoint: polyreactivity (PSR sort gate)

Entry sequence	Result
QVQLQESGGGLVQAGGSPRLSCAASGTITRQYYMGWYRQAPGKERGFVAGIKSGSTTYYADNVKGCFTISRDNAKNAAYLQMNSLKPEDTAVYYCAIRPSYTIPYWYWGQGTQVTVSS	high polyreactivity
QVQLVESGGGLVQAGCSLRLSCAASGRTDFYTMGWYRQAPGKEMELVAAITSTGRTYYADSVKGRFTISRDNAKNTVYLKMNSLKPEDTAVYFCAAVWRYKGLLLPSYYYWGQGTQVTVSS	high polyreactivity
QVQLVESGGGLVQAGGSLRLICAASGRIFTAYVMGWYRQAPGKERQLVAAITEGGGNTYYADSVKGRFTISRDNAKNTVYLQMNSLKPEDTAVYYCAARYLVNGRKRLYYWGQGTQVTVSS	high polyreactivity
QVQLVDSGGGLVQAGGSLRLSCAASGRTFQRNAMGWYRQAPGTERELVATITTNGGSTYYADSVKGRFTISRDNAKNTVYLQMNSLKPEDTAVYYCAAPFNPRVRTLRSVRMDYWGQGTQVTVSS	low polyreactivity
QVQLVESGGGLVQAGGSLRLSCAASGLIFTSYAMGWYRHAPGKERELVAAISTSGGRTYYADSVKGRFTISRDNAKNTVYVQMNSLKAEDTAVYYCYANWRYPYDYWGQGTQVTVSS	high polyreactivity
QVQLVESGGGLVQAGGSLRLSCAASGFIFITYAMGWYRQAPGKEMELVAAITYSDGSTYYADSVKGRFTISRDNAKNTVYLQMNSLKPEDTAVYYCAADSSTFPADYYWGKGTQVTVSS	low polyreactivity
QVQLVESGGGLVQPGGSLRLSCAASGRTFGDYVMGWDREAPGKERELVAVITYRGGSTYYADSVKGRFTISRDNAKNTVHLQMNSLKPEDTAVYYCAAAARAGLKRYYYWGQGTQVTVSS	high polyreactivity
QVQLVESGGGLVQAGGRLRLSCAAYGSIFDGYAMGWYRQAPGKERELVAAISRGGRTYYADSVKGRFTISRDNAKNTVYLQMNSLKPEDTAVYYCAAVTRLDGNMDYWGQGTQVTVSS	high polyreactivity

Okay, here is my list. What is polyreactivity (PSR sort gate) for each of these?
1. QVQLVESGRGLVQAGGSLRLSCAASGITFSYYTMGWYRQAPGKERELVAAINWNGGSTYYADSVKGRFTISRDNAKNTVYLQMNSLKPEDTAVYYCAREKWPSQYDYWGQGTQVTVSS
2. QVQLVESGGGLVQAGGSLRLSCAASGLTFWYYAMGWYRQAPGKERELVAAITSVGSTYYADSVKGRFTISRDNAKNTVYLQMNSLKPEDTAVYYCAAGVPPLYFRRGGDYWGQGTQGTVSS
3. QVQLVESGGGLVQAGGSLRLSCAASGSTFFLYGMGWYRQAPGKERELVAAITWNGGSTYYADSVKGRFTISRDNAKNTVYLQMNSLKPEDTAVYYCAADYYGYFSTPYDYWGQGTQVTVSS
4. QVQHVESGGGLVQARGSLRLSCAASGFIIWGYAMGWYRQAPGKERELVAAISSSGGSTYYADSVKGRFTISRDNAKNTVYLQMNSLKPEDTAVYYCAAVRYQAYSGDGGYWGQGTQVTVSS

1: low polyreactivity; 2: high polyreactivity; 3: low polyreactivity; 4: low polyreactivity

Okay, here is my list. What is polyreactivity (PSR sort gate) for each of these?
1. QVQLVESGGGLVQAGGSLRLSCAASGFTFPYYAMGWYRQAPGKERELVAVISRSGGSTYYADSVKGRFTISRDNAKNTVYLQMNSLKPEDTAVYYCAKRYSLTGGKRTGYYWGQGTQVTVSS
2. QVQLLESGGGLVQARGSLRLSCAASARTIFKNAMAWYRQAPGKERELVARISWNGGDSTYYADSVTGRFTISRDNAKNTVYLQMNSLKPEDTAVYSCAADTSYRPGGSRQGYGYWGQGTQVTVSS
3. QVQLVESGGGLVQAGGSLRLSCAASGSIIWYYAMGWYRQAPGKERELVAAISISGSTYYADSVKGRFTISRDNAKNTVYLQMNSLKPEDTAVYYCAARKFFWRSNYDYWGQGTQVTVSS
4. QVQLVESGGGLVQAGGSLRLSCAASGNTFYANTMGWYRQARTERELVAAITSGTYADSVKGRFTISRDNAKNTVYLQMNSLKPEDTAVYYCAREESLYVTDPGPSKLDYWGQGTQVTVSS
5. QVQLVESGGGLVQAGGSLRLSCAASGRTFIPYAMGWYRQAPGKERELVAAISWSGGGTYYADSVKGRFTISRDNAKNTVYLQMNSLKPEDTAVYYCAAEYWDSYGYWTFDYWGQGTQVTVSS
6. QVQLVESGGGLVQAGGSLRLSCAASGITFVNYAMGWYRQAPGKERELVAAITSGGNTYYADSVKGRFTISRDNAKNTVYLQMNSLKPEDTAVYYCAAKWFYGKPYRGYYYWGQGTQVTVSS
7. QVKLVESGGGLVQAGGSLRLSCAASGSIFLAYAMGWYRQAPGKEREFVAAISCSDGSTYYADSVKGRFTISRDNAKNTVYLQMNSLKPDDTAVFYCYKGASADDYDYCGQGTQVTVSS
8. QVQLVESGGGLVQAGGSLRLSCAASGFTFTGNAMVWYRQAPGKERELVAAIRGSGGSTYYADSVKGRFTISRDNAKNTVNLQMKSLKPDVTAVYYCATYYIRNKGFDYWGQGTQVTVSS

["high polyreactivity", "low polyreactivity", "low polyreactivity", "low polyreactivity", "high polyreactivity", "high polyreactivity", "low polyreactivity", "high polyreactivity"]

response.value for QVQLVESGGGLVQAGGSLRLSCAASGSISKFYAMGWYRQAPGKERELVAAISSGGITNYADSLKGRFTISRDNAKNTVYLQMNSLKPEDTAVYYCAKDYPYYEGAKYYYWGQGTQVTVSS (field: polyreactivity (PSR sort gate)) = high polyreactivity
